# Tested on: Sonic hedgehog protein (Shh)
# MEASUREMENT DESCRIPTION: small-molecule binders of Shh protein, primary screen, biochemical, small-molecule microarray, 635/667 nm fluorescence (AID 1151);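 also: Shh protein binding to compounds spotted on small-molecule microarray slides; score combines spot fluorescence intensity with signal-to-noise across triplicate slides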
# STUDY CONDITIONS: small-molecule microarray binding, 635 nm fluorescence; higher = more signal
We begin with a simple list: items and their reported composite z-score.
Just the number.

Sample records with composite z-score:
CCOC(=O)NN=C1C[C@@H](O)[C@@H](O)[C@@H]2[C@@H]3C(=O)N(C4CCCCC4)C(=O)[C@@H]3CC[C@H]12
0.369
Cc1ccc(S[C@]2(C(=O)O)CC(=O)N(Cc3ccccc3)[C@@H]2c2ccc(CO)cc2I)cc1
-0.41
CC(CCC(=O)OC[C@H]1O[C@H](C#Cc2ccccc2)C=C[C@@H]1Oc1ccc(C)cc1)=NOC[C@@H](O)[C@H]1O[C@@H]2OC(C)(C)O[C@@H]2[C@H]1O
-0.108

## Task Could you share what composite z-score was measured for CC(=O)OC[C@H]1O[C@H](CCON=C[C@@H](C)[C@H](OCc2ccccc2)C(C)C)C=C[C@@H]1OC(C)=O , tested on Sonic hedgehog protein (Shh)?
## Result 0.372
